# assay explanation: NCI Yeast Anticancer Drug Screen. Data for the rad14 strain (AID 159)
# test context: S. cerevisiae rad14 strain growth inhibition; at 3.7 µM
Compounds without any hit were thinned out: in the full panel of roughly 79,000, 15% have a hit. Calls of active or inactive are those of the source. Cut-off read from the data, not from the text of the source: active = growth inhibition above about 70%; inactive = the rest.
Choose the fitting class; nothing outside T (active), F (inactive) is accepted.

Challenge: Recorded test call requested for "CSc1s[s+]c(SC)c1-c1ccccc1"
Response given: F

Challenge: Recorded test call requested for "CN(C)CCN1C(=O)c2cccc3cc([N+](=O)[O-])cc(c23)C1=O"
Response given: F

Challenge: Recorded test call requested for "O=c1ccc(N=Nc2ccccc2)ccc1O"
Response given: T

Challenge: Recorded test call requested for "C=Cc1cnc([N+](=O)[O-])n1C"
Response given: F

Challenge: Recorded test call requested for "Cc1cccc(/C=N\NC(=S)N2CCCCC2)n1"
Response given: T
